# target desc: PtpB (Mycobacterium tuberculosis, UniProt P96830)
# Sequence (P96830 1-276): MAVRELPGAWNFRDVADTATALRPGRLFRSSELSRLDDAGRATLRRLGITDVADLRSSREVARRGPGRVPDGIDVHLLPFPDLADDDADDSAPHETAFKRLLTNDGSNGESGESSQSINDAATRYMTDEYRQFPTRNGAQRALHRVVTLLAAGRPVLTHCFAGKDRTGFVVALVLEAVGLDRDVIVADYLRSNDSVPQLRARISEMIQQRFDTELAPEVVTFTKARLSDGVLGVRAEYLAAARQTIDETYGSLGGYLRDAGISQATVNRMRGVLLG
pKi: −log10 of the molar value.
Decide by pKi: equal to or exceeding 5 means TRUE, less means FALSE.

Take a look at these entries with their results.
COc1c(C)c(OC(C)=O)c2c(c1-c1c(OC)c(C)c(OC(C)=O)c3c1C(=O)c1cc(C)cc(OC(C)=O)c1C3=O)C(=O)c1cc(C)cc(OC(C)=O)c1C2=O [Ac3, tetra-acetyl-trachypone]    FALSE
CC(C)=CCc1c(O)ccc(C(=O)[C@H]2[C@@H](c3c(O)cc(/C=C/c4ccc(O)cc4O)cc3O)C=C(C)C[C@@H]2c2ccc(O)cc2O)c1O [KuwE, Kuwanol E]    TRUE
CC(C)=CCC/C(C)=C/Cc1cc(CCC(=O)c2c(O)cc(O)c(CC=C(C)C)c2O)ccc1O [Ega1]    FALSE

Shifting focus to the compound that follows.
Decide: pKi of CC(C)=CCc1c(C)c(CC=C(C)C)c2c(c1O)C(=O)c1c(O)cc(O)c(CC=C(C)C)c1C2 [PirIII] >= 5?
TRUE
